molecular target: B*0702 class I MHC molecules in cells infected with the PR8 strain of influenza A virus (Homo sapiens, UniProt P01889); type: cell-based
Listed below: Fold Increase values for each entry.
Write the value as a bare number.

# annotated cases, reported Fold Increase shown
SPQEDKEVI 4.19
GPPGTGKTAL 1.5
YQFTGIKKY 2.3
KPQDYKKR 2.9

Inquiry: Suppose we examine the substance APGAPPRTL ; what Fold Increase value has been reported?
Reply text: 1.5

Inquiry: Suppose we examine the substance RPGLKNNL ; what Fold Increase value has been reported?
Reply text: 1.5

Inquiry: Suppose we examine the substance APRPPPKM ; what Fold Increase value has been reported?
Reply text: 2.9

Inquiry: Suppose we examine the substance RPQGGQDIL ; what Fold Increase value has been reported?
Reply text: 2.24

Inquiry: Suppose we examine the substance TPEQIFQN ; what Fold Increase value has been reported?
Reply text: 1.51

Inquiry: Suppose we examine the substance RIVPRFSEL ; what Fold Increase value has been reported?
Reply text: 1.54

Inquiry: Suppose we examine the substance SPKIRRL ; what Fold Increase value has been reported?
Reply text: 1.63

Inquiry: Suppose we examine the substance RPTGGVGAV ; what Fold Increase value has been reported?
Reply text: 2.7

Inquiry: Suppose we examine the substance RPKANSA ; what Fold Increase value has been reported?
Reply text: 1.8
